meta.source: patent US20140178390A1

Target Entity: T1, Human CXCR7 (human, UniProt P25106 1-362)
T1 construct: see assay field; also called hCXCR7
T1 sequence (P25106 whole entry): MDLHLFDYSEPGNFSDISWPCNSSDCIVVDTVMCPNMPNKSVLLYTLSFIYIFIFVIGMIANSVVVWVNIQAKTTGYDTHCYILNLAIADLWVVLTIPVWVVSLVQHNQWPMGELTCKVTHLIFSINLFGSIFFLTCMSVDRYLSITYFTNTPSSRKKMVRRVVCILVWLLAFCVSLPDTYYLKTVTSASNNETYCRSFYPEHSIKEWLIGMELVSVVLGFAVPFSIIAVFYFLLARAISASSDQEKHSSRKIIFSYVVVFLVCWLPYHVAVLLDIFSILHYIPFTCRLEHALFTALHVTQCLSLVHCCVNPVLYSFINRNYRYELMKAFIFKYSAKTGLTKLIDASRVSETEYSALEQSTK
Test Method Notes: [125I]-CXCL12 displacement on NIH3T3-hCXCR7 cells
pKi: −log10 of the molar value.
Parameter threshold = 8. Response is Condition met when pKi meets or exceeds it, else Condition not met.

Nanobody 07B11 with Tag-2 (VHH, Purified from E. coli periplasm) VHH: EVQLVESGGNLVQAGGSLGLSCAASVSISSIHIMGWYRQAPGKQRDLVATITSGGSTAYADSVKGRFTVSKDNAKNTVYLQMDSLKPEDTSVYYCAAEVRNGVFGKWNHYWGQGTQVTVSS ... Condition not met
Mab 11G8 (R&D Systems) (antibody, V domains shown) VH: EVKLVESGGDLVQPGGSLKLSCATSGFTFSDYYMFWVRQTPEKRLEWVAYITNGGDRSYYSDTVTGRFIISRDNAKNTLYLQMSRLKSEDTAMYYCARQGNWAAWFVYWGQGTLVTVSA VL: DVLMTQTPLSLPVSLGDQASISCRSSHYIVHSDGNTYLEWYLQKPGQSPKLLIYKVSNRFSGVPDRFSGSGSGTDFTLKISRVEAEDLGIYYCFQGSHVPLTFGAGTKLELKR ... Condition met

Problem: Determine whether this binder has pKi no lower than 8: Nanobody 01C10 with Tag-2 (VHH, Purified from E. coli periplasm) VHH: EVQLVESGGGLVQTGASLRLSCAASGRTFSNYAMGWFRQAPGKERERVAAITPRAFTTYYADSVKGRFTISRDNAKNTAYLQMVSLKPEDTAVYYCAAQLVGSGSNLGRQESYAYWGQGTQVTVSS
Solution: Condition not met
